Test system: ICS
Experiment: qHTS profiling for inhibitors of Plasmodium falciparum proliferation (AID 504749); further: nearly all actives have a fitted effect of over 60% in size
Settings: P. falciparum in erythrocytes, SYBR Green DNA, 72 h; series mostly up to 28.7 µM
Method: NIH National Institute of Allergy and Infectious Diseases [NIAID] NIH Chemical Genomics Center [NCGC] […] Because mature erythrocytes lack DNA, only Plasmodium-derived DNA is detected. NCGC Assay Protocol Summary: The SYBR Green viability assay was adapted from a method described previously (Plouffe et al., 2008). […] The following morning, fluorescence intensity at 485(14) nm excitation and 535(25) nm emission wavelengths was measured on an EnVision (Perkin Elmer) plate reader. […]
Records with an inconclusive call do not appear. Calls of active or inactive are those of the source. The call rests on the fitted dose curve; in most records, active means well fitted inhibition curve with a large enough effect; inconclusive means small, poorly fitted or top-dose-only effect; inactive means flat fitted curve, though single readings scatter.
Choose the fitting class; nothing outside true (active), false (inactive) is accepted.

input: Dear colleague, could you share the recorded outcome for `CCc1nnc(NS(=O)(=O)c2ccc(N)cc2)s1` when you have a moment?
output: false

input: Dear colleague, could you share the recorded outcome for `COC(=O)c1ccccc1C(=O)c1ccc(OCCN2CCCCC2)cc1` when you have a moment?
output: false

input: Dear colleague, could you share the recorded outcome for `CC(C)(C)C(=O)OCOC(=O)[C@@H]1N2C(=O)[C@@H](NC(=O)[C@H](N)c3ccccc3)[C@H]2SC1(C)C` when you have a moment?
output: false

input: Dear colleague, could you share the recorded outcome for `NCc1ccc(S(N)(=O)=O)cc1` when you have a moment?
output: true

input: Dear colleague, could you share the recorded outcome for `O=c1[nH]cnc2nc[nH]c12` when you have a moment?
output: false

input: Dear colleague, could you share the recorded outcome for CCCCCCCCCCC(CO)CCCCCCCC (configuration not stated) when you have a moment?
output: true

input: Dear colleague, could you share the recorded outcome for `OCc1ccc(Cl)cc1Cl` when you have a moment?
output: false

input: Dear colleague, could you share the recorded outcome for `CCN(CC)CCc1nc(-c2ccccc2)no1` when you have a moment?
output: false

input: Dear colleague, could you share the recorded outcome for `O=C(NCN1CCOCC1)c1cnccn1` when you have a moment?
output: false

input: Dear colleague, could you share the recorded outcome for `CC(=O)NCc1c(I)c(NC(C)=O)c(I)c(C(=O)O)c1I` when you have a moment?
output: false

input: Dear colleague, could you share the recorded outcome for `NS(=O)(=O)c1cc2c(cc1C(F)(F)F)NCNS2(=O)=O` when you have a moment?
output: false

input: Dear colleague, could you share the recorded outcome for `CCc1cccc(CC)c1NC(=O)CN(CC(=O)O)CC(=O)O` when you have a moment?
output: false

input: Dear colleague, could you share the recorded outcome for `CC(C)C[C@@H](N)C(=O)O` when you have a moment?
output: false

input: Dear colleague, could you share the recorded outcome for `C[C@@H](N)C(=O)O` when you have a moment?
output: false

input: Dear colleague, could you share the recorded outcome for `Nc1ccc(S(=O)(=O)c2ccc(N)cc2)cc1` when you have a moment?
output: false

input: Dear colleague, could you share the recorded outcome for `Cc1cc(-n2nc3ccc(Cl)cc3n2)c(O)c(C(C)(C)C)c1` when you have a moment?
output: false

input: Dear colleague, could you share the recorded outcome for `N[C@@H](Cc1ccc(O)cc1)C(=O)O` when you have a moment?
output: false

input: Dear colleague, could you share the recorded outcome for `COc1nccnc1NS(=O)(=O)c1ccc(N)cc1` when you have a moment?
output: false

input: Dear colleague, could you share the recorded outcome for O=C(O)CCCCC1CCSS1 (configuration not stated) when you have a moment?
output: false

input: Dear colleague, could you share the recorded outcome for `CC(=O)OC[C@H]1O[C@@](COC(C)=O)(O[C@H]2O[C@H](COC(C)=O)[C@@H](OC(C)=O)[C@H](OC(C)=O)[C@H]2OC(C)=O)[C@@H](OC(C)=O)[C@@H]1OC(C)=O` when you have a moment?
output: false

input: Dear colleague, could you share the recorded outcome for `CC1CCN(CCCC(=O)c2ccc(F)cc2)CC1` when you have a moment?
output: false

input: Dear colleague, could you share the recorded outcome for CCN(CC)CC1CCCCN1CC(=O)N1c2ccccc2C(=O)Nc2cccnc21 (configuration not stated) when you have a moment?
output: false

input: Dear colleague, could you share the recorded outcome for CCCCCCCCCCCCCCCCC(C(=O)O)C(O)(CC(=O)O)C(=O)O (configuration not stated) when you have a moment?
output: false

input: Dear colleague, could you share the recorded outcome for `CC(=O)Nc1ccc(OCCOCCOc2ccc(NC(C)=O)cc2)cc1` when you have a moment?
output: false

input: Dear colleague, could you share the recorded outcome for `CNc1c2c(nn1C)CCCC2` when you have a moment?
output: false

input: Dear colleague, could you share the recorded outcome for `CN(C(=O)c1c(O)c2ccccc2n(C)c1=O)c1ccccc1` when you have a moment?
output: false

input: Dear colleague, could you share the recorded outcome for `NC(=O)CC[C@@H](N)C(=O)O` when you have a moment?
output: false

input: Dear colleague, could you share the recorded outcome for `CC(=O)OCC(COC(C)=O)OC(C)=O` when you have a moment?
output: false

input: Dear colleague, could you share the recorded outcome for `O=C(O)c1ccccc1C(=O)Nc1ccc(S(=O)(=O)Nc2nccs2)cc1` when you have a moment?
output: false

input: Dear colleague, could you share the recorded outcome for `CCOC(=O)c1cccnc1` when you have a moment?
output: false

input: Dear colleague, could you share the recorded outcome for `Cc1c(C(=O)NCCO)[n+](=O)c2ccccc2n1[O-]` when you have a moment?
output: false

input: Dear colleague, could you share the recorded outcome for CC(CSC(=O)c1ccccc1)C(=O)N1C[C@@H](Sc2ccccc2)C[C@H]1C(=O)O (some centres not stated) when you have a moment?
output: false

input: Dear colleague, could you share the recorded outcome for CC(N)CCCC(C)(C)O (configuration not stated) when you have a moment?
output: false

input: Dear colleague, could you share the recorded outcome for `COc1ccccc1OC(=O)Oc1ccccc1OC` when you have a moment?
output: false

input: Dear colleague, could you share the recorded outcome for `Cc1ccc(C(C)C)c(O)c1` when you have a moment?
output: false

input: Dear colleague, could you share the recorded outcome for `CN1CCN(C(=O)C2CCCCC2)CC1` when you have a moment?
output: false

input: Dear colleague, could you share the recorded outcome for C=CCSCC1Nc2cc(Cl)c(S(N)(=O)=O)cc2S(=O)(=O)N1 (configuration not stated) when you have a moment?
output: false

input: Dear colleague, could you share the recorded outcome for `Cn1c([N+](=O)[O-])cnc1COC(N)=O` when you have a moment?
output: false

input: Dear colleague, could you share the recorded outcome for `Cn1c(=O)c2c(ncn2CCO)n(C)c1=O` when you have a moment?
output: false

input: Dear colleague, could you share the recorded outcome for `COC(=O)c1ccc(O)cc1` when you have a moment?
output: false

input: Dear colleague, could you share the recorded outcome for `CC(C)CCOC(=O)c1ccc(N(C)C)cc1` when you have a moment?
output: false

input: Dear colleague, could you share the recorded outcome for `Nc1c2c(nc3c1CCC3)CCCC2` when you have a moment?
output: true

input: Dear colleague, could you share the recorded outcome for `CCCNC(C)(C)COC(=O)c1ccccc1` when you have a moment?
output: false

input: Dear colleague, could you share the recorded outcome for CCCCCCCC(=O)OCC(O)CO (configuration not stated) when you have a moment?
output: false

input: Dear colleague, could you share the recorded outcome for `NNC(=O)CP(=O)(c1ccccc1)c1ccccc1` when you have a moment?
output: false

input: Dear colleague, could you share the recorded outcome for `CCCCCCCCCCCCCCCCCCO` when you have a moment?
output: false

input: Dear colleague, could you share the recorded outcome for `NS(=O)(=O)c1cc(-c2nn[nH]n2)c(NCc2cccs2)cc1Cl` when you have a moment?
output: false

input: Dear colleague, could you share the recorded outcome for `Cc1c(N(C)C)c(=O)n(-c2ccccc2)n1C` when you have a moment?
output: false

input: Dear colleague, could you share the recorded outcome for `O=C(O)Cc1cn(-c2ccccc2)nc1-c1ccc(Cl)cc1` when you have a moment?
output: false

input: Dear colleague, could you share the recorded outcome for `CCCCCCCCCCOc1cc2c(=O)c(C(=O)OCC)c[nH]c2cc1OCC` when you have a moment?
output: true

input: Dear colleague, could you share the recorded outcome for `CC(C)c1cc2c(cc1S(=O)(=O)O)[C@@]1(C)CCC[C@@](C)(C(=O)O)[C@@H]1CC2` when you have a moment?
output: false

input: Dear colleague, could you share the recorded outcome for `COc1ccc(C(=O)N2CCN(CC(=O)N3CCOCC3)CC2)cc1` when you have a moment?
output: false
